test system: Escherichia coli TOP10; assay: shrunken log2 fold change of peptide-encoding DNA abundance (4.5 h post-induction vs induction); higher = less antimicrobial activity (less host growth inhibition); conditions: time post-induction: 4.5 h; library: site-saturation at positions 5, 18, 19, 20
Assign shrunken log2 fold change to each entry below.
Give bare numbers.

Observe how each entry below is paired with its result.
RRIRARPPRLPRPRPRPDLKPRP 0.523
RRIRCRPPRLPRPRPRPWPWPRP 0.0405
RRIRVRPPRLPRPRPRPKEAPRP -0.0421
RRIRVRPPRLPRPRPRPVTHPRP -0.277
RRIRNRPPRLPRPRPRPWRYPRP -0.0121

List shrunken log2 fold change for every entry below, keeping the order given.
1. RRIRFRPPRLPRPRPRPGINPRP
2. RRIRKRPPRLPRPRPRPHEVPRP
3. RRIRWRPPRLPRPRPRPFTCPRP
4. RRIRHRPPRLPRPRPRPDNKPRP
5. RRIRWRPPRLPRPRPRPQFAPRP
6. RRIRERPPRLPRPRPRPVVKPRP

A:
1: -0.288; 2: -0.00968; 3: 0.000407; 4: -0.27; 5: 0.189; 6: -0.413

List shrunken log2 fold change for every entry below, keeping the order given.
1. RRIRYRPPRLPRPRPRPGCSPRP
2. RRIRHRPPRLPRPRPRPYWPPRP
3. RRIRTRPPRLPRPRPRPDLQPRP
4. RRIRCRPPRLPRPRPRPYQNPRP

A:
-0.214
-0.306
-0.0382
-1.1

----------
system: Escherichia coli TOP10; test: shrunken log2 fold change of peptide-encoding DNA abundance (4.5 h post-induction vs induction); higher = less antimicrobial activity (less host growth inhibition); conditions: time post-induction: 4.5 h; library: site-saturation at positions 5, 18, 19, 20
RECORDED METRIC: shrunken log2 fold change

Observe how each entry below is paired with its result.
RRIRCRPPRLPRPRPRPHFKPRP -0.368
RRIRVRPPRLPRPRPRPYESPRP -0.0252
RRIRSRPPRLPRPRPRPMDYPRP 0.0691
RRIRRRPPRLPRPRPRPCHTPRP -0.24
RRIRIRPPRLPRPRPRPVNPPRP 1.75

List shrunken log2 fold change for every entry below, keeping the order given.
1. RRIRRRPPRLPRPRPRPYLNPRP
2. RRIRSRPPRLPRPRPRPACMPRP
3. RRIRIRPPRLPRPRPRPTPKPRP
4. RRIRYRPPRLPRPRPRPKRYPRP
5. RRIRRRPPRLPRPRPRPISVPRP
6. RRIRHRPPRLPRPRPRPGKFPRP
7. RRIRVRPPRLPRPRPRPFSNPRP

A:
[-1.13, 0.159, -0.0169, -0.0281, -0.115, -0.175, -0.28]

----------
test system: Escherichia coli TOP10; assay: shrunken log2 fold change of peptide-encoding DNA abundance (4.5 h post-induction vs induction); higher = less antimicrobial activity (less host growth inhibition); details: time post-induction: 4.5 h; library: site-saturation at positions 5, 18, 19, 20
RECORDED METRIC: shrunken log2 fold change
Give bare numbers.

Observe how each entry below is paired with its result.
RRIRIRPPRLPRPRPRPKMRPRP 0.742
RRIRLRPPRLPRPRPRPTKAPRP 0.0258
RRIRVRPPRLPRPRPRPEPKPRP 0.13
RRIRPRPPRLPRPRPRPADEPRP 0.0954
RRIRARPPRLPRPRPRPNLAPRP -0.179
RRIRVRPPRLPRPRPRPPSQPRP 0.125
RRIRFRPPRLPRPRPRPPNPPRP 0.412
RRIRERPPRLPRPRPRPYQCPRP -0.00884

List shrunken log2 fold change for every entry below, keeping the order given.
1. RRIRARPPRLPRPRPRPYALPRP
2. RRIRGRPPRLPRPRPRPKYGPRP
3. RRIRPRPPRLPRPRPRPSIMPRP
4. RRIRGRPPRLPRPRPRPCWCPRP
5. RRIRHRPPRLPRPRPRPGHDPRP
6. RRIRKRPPRLPRPRPRPSCCPRP

A:
1. 0.0681
2. -0.111
3. -0.552
4. 0.171
5. 0.0104
6. 0.269

Q: Query the reported shrunken log2 fold change for Escherichia coli TOP10; item: "RRIRFRPPRLPRPRPRPVMTPRP"
A: -0.218

----------
system: Escherichia coli TOP10; experiment: shrunken log2 fold change of peptide-encoding DNA abundance (4.5 h post-induction vs induction); higher = less antimicrobial activity (less host growth inhibition); details: time post-induction: 4.5 h; library: site-saturation at positions 5, 18, 19, 20
RECORDED METRIC: shrunken log2 fold change
Numbers only.

List shrunken log2 fold change for every entry below, keeping the order given.
1. RRIRPRPPRLPRPRPRPTAPPRP
2. RRIRARPPRLPRPRPRPQYAPRP
3. RRIRLRPPRLPRPRPRPCYYPRP

A:
0.528
0.0596
-0.936

List shrunken log2 fold change for every entry below, keeping the order given.
1. RRIRCRPPRLPRPRPRPYPDPRP
2. RRIRVRPPRLPRPRPRPGHLPRP

A:
1. -0.282
2. -0.185

List shrunken log2 fold change for every entry below, keeping the order given.
1. RRIRWRPPRLPRPRPRPHCVPRP
2. RRIRSRPPRLPRPRPRPVCKPRP
3. RRIRKRPPRLPRPRPRPLSFPRP
4. RRIRRRPPRLPRPRPRPGMFPRP
5. RRIRSRPPRLPRPRPRPRTHPRP
6. RRIRYRPPRLPRPRPRPPSEPRP
7. RRIRARPPRLPRPRPRPVQRPRP

A:
1: -0.169; 2: -0.0891; 3: -0.191; 4: 0.00289; 5: 0.181; 6: -0.0723; 7: 0.615

----------
Assign shrunken log2 fold change to each entry below.
test system: Escherichia coli TOP10; experiment: shrunken log2 fold change of peptide-encoding DNA abundance (4.5 h post-induction vs induction); higher = less antimicrobial activity (less host growth inhibition); conditions: time post-induction: 4.5 h; library: site-saturation at positions 5, 18, 19, 20
Give bare numbers.

Observe how each entry below is paired with its result.
RRIRQRPPRLPRPRPRPQRNPRP -0.23
RRIRWRPPRLPRPRPRPPLWPRP 0.558
RRIRIRPPRLPRPRPRPGRDPRP 0.0442
RRIRFRPPRLPRPRPRPLQDPRP 0.118
RRIRARPPRLPRPRPRPNRHPRP 0.0991
RRIRSRPPRLPRPRPRPTGDPRP 0.353

List shrunken log2 fold change for every entry below, keeping the order given.
1. RRIRLRPPRLPRPRPRPKGGPRP
2. RRIRSRPPRLPRPRPRPELDPRP

A:
1. 0.01
2. 0.674

----------
tested on: Escherichia coli TOP10; assay: shrunken log2 fold change of peptide-encoding DNA abundance (4.5 h post-induction vs induction); higher = less antimicrobial activity (less host growth inhibition); conditions: time post-induction: 4.5 h; library: site-saturation at positions 5, 18, 19, 20
RECORDED METRIC: shrunken log2 fold change

RRIRDRPPRLPRPRPRPANTPRP -0.0443
RRIRRRPPRLPRPRPRPWNYPRP -0.242
RRIRWRPPRLPRPRPRPPPPPRP 0.958

List shrunken log2 fold change for every entry below, keeping the order given.
1. RRIRFRPPRLPRPRPRPCRRPRP
2. RRIRCRPPRLPRPRPRPCQWPRP
3. RRIRARPPRLPRPRPRPRKLPRP
4. RRIRSRPPRLPRPRPRPCLTPRP
5. RRIRTRPPRLPRPRPRPHQYPRP
6. RRIRNRPPRLPRPRPRPVPNPRP

A:
0.122
-0.00783
0.424
-0.293
-0.259
-0.0122

List shrunken log2 fold change for every entry below, keeping the order given.
1. RRIRVRPPRLPRPRPRPTRWPRP
2. RRIRQRPPRLPRPRPRPYYCPRP
3. RRIRSRPPRLPRPRPRPNKEPRP
4. RRIRHRPPRLPRPRPRPFVWPRP
5. RRIRNRPPRLPRPRPRPLTHPRP
6. RRIRHRPPRLPRPRPRPKSNPRP
7. RRIRSRPPRLPRPRPRPLHTPRP
8. RRIRERPPRLPRPRPRPEKWPRP

A:
[0.173, -0.332, 0.0328, -0.0616, -0.566, -0.216, 0.0576, -0.0225]

----------
Assign shrunken log2 fold change to each entry below.
tested on: Escherichia coli TOP10; experiment: shrunken log2 fold change of peptide-encoding DNA abundance (4.5 h post-induction vs induction); higher = less antimicrobial activity (less host growth inhibition); conditions: time post-induction: 4.5 h; library: site-saturation at positions 5, 18, 19, 20;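 further: peptides expressed intracellularly from a pBAD plasmid library in pooled LB shake-flask culture, induced with 0.3% L-arabinose, DNA abundance read by NGS, three biological replicates, DESeq2 with apeglm shrinkage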
Give bare numbers.

List shrunken log2 fold change for every entry below, keeping the order given.
1. RRIRFRPPRLPRPRPRPTRVPRP
2. RRIRDRPPRLPRPRPRPDWHPRP
3. RRIRWRPPRLPRPRPRPLVIPRP
4. RRIRERPPRLPRPRPRPNPHPRP
5. RRIRMRPPRLPRPRPRPTYHPRP
6. RRIRYRPPRLPRPRPRPEYWPRP
7. RRIRCRPPRLPRPRPRPDNLPRP

A:
0.616
0.0912
-0.0698
-0.234
-0.242
-0.692
-0.595

List shrunken log2 fold change for every entry below, keeping the order given.
1. RRIRGRPPRLPRPRPRPEGLPRP
2. RRIRPRPPRLPRPRPRPDHKPRP
3. RRIRFRPPRLPRPRPRPEGAPRP
4. RRIRPRPPRLPRPRPRPHDPPRP
5. RRIRERPPRLPRPRPRPWSHPRP
6. RRIRGRPPRLPRPRPRPKELPRP

A:
[1.06, -0.334, 1.05, 0.192, -0.168, 0.247]

List shrunken log2 fold change for every entry below, keeping the order given.
1. RRIRIRPPRLPRPRPRPVMEPRP
2. RRIRDRPPRLPRPRPRPFWWPRP
3. RRIRSRPPRLPRPRPRPEYYPRP

A:
[-0.194, 0.641, 0.0495]

List shrunken log2 fold change for every entry below, keeping the order given.
1. RRIRPRPPRLPRPRPRPYFSPRP
2. RRIRWRPPRLPRPRPRPHGDPRP
3. RRIRPRPPRLPRPRPRPVPHPRP

A:
1: -0.31; 2: 0.145; 3: 0.0546
